protocol-summary: Antioxidant activity assessed as DPPH radical scavenging activity after 30 min
Type: physicochemical
measurement-setup: DPPH radical solution
pIC50: −log10 of the molar value.
The following compounds are listed with their measured pIC50 values.

chemical-smiles | qualifier-operator | pIC50
CCN(CC)CCOc1cc(O)c2c(=O)c(OC)c(-c3ccc(O)c(O)c3)oc2c1 | = | 4.56
COc1c(-c2ccc(O)c(O)c2)oc2cc(O)cc(OCCN3CCOCC3)c2c1=O | < | 4.00
COc1c(-c2cc(O)c(O)c(O)c2)oc2cc(O)cc(OCCN3CCOCC3)c2c1=O | = | 4.63
COc1c(-c2ccc(O)c(O)c2)oc2cc(O)cc(OCCN3CCCC3)c2c1=O | = | 4.08
COc1c(-c2cc(O)c(O)c(O)c2)oc2cc(OCCN3CCOCC3)cc(O)c2c1=O | = | 4.59
CCN(CC)CCOc1cc(O)c2c(=O)c(OC)c(-c3cc(O)c(O)c(O)c3)oc2c1.Cl | = | 4.64
COc1c(-c2cc(O)c(O)c(O)c2)oc2cc(O)cc(OCCN3CCCCC3)c2c1=O | = | 4.49
COc1c(-c2ccc(O)c(O)c2)oc2cc(OCCN3CCCC3)cc(O)c2c1=O | = | 4.72
O=C1O[C@H]([C@@H](O)CO)C(O)=C1O | = | 4.39
COc1c(-c2ccc(O)c(O)c2)oc2cc(OCCN3CCOCC3)cc(O)c2c1=O | = | 4.33
